Below, each entry is listed alongside its reported IC50 (µg/ml) with constrains.
Target: HIV Env of isolate HIV-0013095-2.11 (clade C) (HIV)
Assay: cell-based or functional assay

binder="PGDM1400 (antibody, V domains shown) VH: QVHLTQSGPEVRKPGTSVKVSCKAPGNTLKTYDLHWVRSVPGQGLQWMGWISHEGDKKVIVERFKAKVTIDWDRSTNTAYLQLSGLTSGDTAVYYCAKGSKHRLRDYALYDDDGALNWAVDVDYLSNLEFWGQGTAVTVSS VL: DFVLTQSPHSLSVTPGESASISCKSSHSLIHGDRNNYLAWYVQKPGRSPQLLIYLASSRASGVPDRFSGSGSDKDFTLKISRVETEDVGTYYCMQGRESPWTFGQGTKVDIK" measured_result="> 100 µg/mL"
binder="ePGDM9 (antibody, V domains shown) VH: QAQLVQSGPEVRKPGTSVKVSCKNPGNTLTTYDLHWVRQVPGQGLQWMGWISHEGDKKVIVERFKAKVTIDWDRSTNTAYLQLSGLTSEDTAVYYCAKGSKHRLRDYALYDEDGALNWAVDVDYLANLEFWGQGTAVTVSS VL: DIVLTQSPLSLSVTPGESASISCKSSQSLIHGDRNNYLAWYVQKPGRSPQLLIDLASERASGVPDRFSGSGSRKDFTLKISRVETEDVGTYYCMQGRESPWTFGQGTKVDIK" measured_result="> 100 µg/mL"

// recorded IC50 (µg/ml) with constrains for ePGDM13 (antibody, V domains shown) VH: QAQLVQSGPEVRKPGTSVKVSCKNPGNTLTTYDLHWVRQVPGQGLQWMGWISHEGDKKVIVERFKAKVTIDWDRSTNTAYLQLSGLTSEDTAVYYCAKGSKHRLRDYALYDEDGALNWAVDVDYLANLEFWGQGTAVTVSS VL: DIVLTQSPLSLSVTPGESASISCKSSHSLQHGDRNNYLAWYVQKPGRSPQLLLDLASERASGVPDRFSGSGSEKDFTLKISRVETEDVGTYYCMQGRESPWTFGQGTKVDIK : > 100 µg/mL
